- protocolNotes: AUC and Cmax target safe levels of CYP3A4 substrate drugs (Table 1)
- measurementConditions: human
measurementLabel: Cmax target safe level, Percent of baseline (%)

Field: example entries. Status: answers known.
>  <molecule>
Cc1[nH]c2ccccc2c1CCNCc1ccc(/C=C/C(=O)NO)cc1

>  <valueUnits>
%

>  <measuredResult>
162

$$$$
>  <molecule>
COc1cc2c(cc1OC)[C@H]1C[C@@H](O)[C@H](CC(C)C)CN1CC2 [[+]-α-HTBZ]

>  <valueUnits>
%

>  <measuredResult>
170

$$$$
>  <molecule>
CNC(=O)c1ccc(N2C(=S)N(c3cnc(C#N)c(C(F)(F)F)c3)C(=O)C23CCC3)cc1F [apalutamide]

>  <valueUnits>
%

>  <measuredResult>
138

$$$$
>  <molecule>
CC(C)COc1ccc(CNC(=O)N(Cc2ccc(F)cc2)C2CCN(C)CC2)cc1

>  <valueUnits>
%

>  <measuredResult>
150

$$$$
>  <molecule>
O=C(NC[C@H]1CN(c2ccc(N3CCOCC3=O)cc2)C(=O)O1)c1ccc(Cl)s1

>  <valueUnits>
%

>  <measuredResult>
0

$$$$

a = Cc1c(C(=O)Nc2ccc(N3C[C@@H](C)O[C@@H](C)C3)nc2)cccc1-c1ccc(OC(F)(F)F)cc1
b = N#Cc1ccnc(N2C(=O)CC[C@H]2C(=O)N(c2cncc(F)c2)[C@H](C(=O)NC2CC(F)(F)C2)c2ccccc2Cl)c1
Lab notebook, comparison: a versus b , higher Cmax target safe level, Percent of baseline goes to which? Could you answer with the label of the item you picked?
b
(b: 152%, a: 0%)

###

- protocolNotes: Pooled posaconazole steady-state concentration and elimination half-life, clinical studies BOW-001 and BOW-002
- Format: in vivo, human
- measurementConditions: human, in vivo, BOW-002 Obese; read-out: t1/2, Mean (converted)
measurementLabel: half-life (h)
Just the number please, in h, no unit attached.

half-life in this record for "CC[C@@H]([C@H](C)O)n1ncn(-c2ccc(N3CCN(c4ccc(OC[C@@H]5CO[C@@](Cn6cncn6)(c6ccc(F)cc6F)C5)cc4)CC3)cc2)c1=O" : 52.5

###

- protocolNotes: AUC and Cmax target safe levels of CYP3A4 substrate drugs (Table 1)
- measurementConditions: human
- From the text: In various embodiments, the “Target safe levels” are non-limiting examples of the upper limit of fold change or percent of baseline where in some embodiments the benefits of treating the patient for the condition or disease for which the CYP3A4 substrate drug is indicated outweigh the risks associated with the effects of a drug-drug interaction. […]
measurementLabel: AUC target safe level, Percent of baseline (%)

>  <inputSmiles>
CC(C)COc1ccc(CNC(=O)N(Cc2ccc(F)cc2)C2CCN(C)CC2)cc1

>  <measuredResult>
300

$$$$

A = CC(C)(CO)c1cc2cc(NC(=O)C3(c4ccc5c(c4)OC(F)(F)O5)CC3)c(F)cc2n1C[C@@H](O)CO
B = C=CC(=O)N1CCC[C@@H](n2nc(-c3ccc(Oc4ccccc4)cc3)c3c(N)ncnc32)C1
Higher AUC target safe level, Percent of baseline: A or B ? Select an item and report its label.
B

###

- protocolNotes: Plasma ranolazine pharmacokinetics before, during and after posaconazole in normal-weight and obese subjects
- Format: in vivo, human
- measurementConditions: human, plasma, oral, 500 mg, Day 18 (3 days after last posaconazole dose); normal-weight subjects; ranolazine 500 mg ER; mean ± SD
measurementLabel: half-life (h)
I only need the number, in h, no unit after it.

Documented half-life of COc1ccccc1OCC(O)CN1CCN(CC(=O)Nc2c(C)cccc2C)CC1 (stereo not shown) : 5.73

###

- protocolNotes: Plasma ranolazine pharmacokinetics before, during and after posaconazole in normal-weight and obese subjects
- Format: in vivo, human
- measurementConditions: human, plasma, oral, 500 mg, Day 22 (7 days after last posaconazole dose); normal-weight subjects; ranolazine 500 mg ER; mean ± SD
measurementLabel: AUC(0-inf) (ng·h/mL)
Numeric only. Scale: ng·h/mL

Query COc1ccccc1OCC(O)CN1CCN(CC(=O)Nc2c(C)cccc2C)CC1 (stereo not shown) yields AUC(0-inf) of 13400

###

- protocolNotes: Plasma ranolazine pharmacokinetics before, during and after posaconazole in normal-weight and obese subjects
- Type: in vivo, human
- measurementConditions: human, plasma, oral, 500 mg, Day 1 (before posaconazole); obese subjects; ranolazine 500 mg extended-release tablet; mean ± SD; read-out: Cmax
measurementLabel: Cmax (ng/mL)
Number in ng/mL, nothing else.

Kindly note the recorded Cmax for COc1ccccc1OCC(O)CN1CCN(CC(=O)Nc2c(C)cccc2C)CC1 (stereo not shown) [ranolazine] , which is 559

###

- protocolNotes: Plasma ranolazine pharmacokinetics before, during and after posaconazole in normal-weight and obese subjects
- Assay type: in vivo, human
- measurementConditions: human, plasma, oral, 500 mg, Day 25 (10 days after last posaconazole dose); normal-weight subjects; ranolazine 500 mg ER; mean ± SD; read-out: Cmax
measurementLabel: Cmax (ng/mL)
Please give a number only; it is taken to be in ng/mL.

The molecule listed as COc1ccccc1OCC(O)CN1CCN(CC(=O)Nc2c(C)cccc2C)CC1 (stereo not shown) shows Cmax equal to 928

###

- protocolNotes: Plasma ranolazine pharmacokinetics before, during and after posaconazole in normal-weight and obese subjects
- Assay type: in vivo, human
- measurementConditions: human, plasma, oral, 500 mg, Day 1 (before posaconazole); normal-weight subjects; ranolazine 500 mg extended-release tablet; mean ± SD; read-out: Cmax
measurementLabel: Cmax (ng/mL)
Response body: numeric value in ng/mL, unit text excluded.

Form field Cmax, entry COc1ccccc1OCC(O)CN1CCN(CC(=O)Nc2c(C)cccc2C)CC1 (stereo not shown) : 665

###

- protocolNotes: Plasma posaconazole concentrations and washout half-life in normal-weight and obese subjects
- Assay type: in vivo, human
- measurementConditions: human, plasma, oral, normal-weight subjects; from day 15; read-out: Postdosage washout half-life of posaconazole (converted)
- Method: On study day 2, subjects received posaconazole (300 mg delayed-release tablet twice a day), and on the mornings of days 3-15, subjects received posaconazole (300 mg delayed-release tablet daily). […] Analytic Methods. […] The m/z transitions monitored were 701.6→614.4 for posaconazole and 705.6→618.4 for the internal standard. […]
measurementLabel: half-life (min)
Report the value in min with no unit label.

Value of measured half-life for the entry "CC[C@@H]([C@H](C)O)n1ncn(-c2ccc(N3CCN(c4ccc(OC[C@@H]5CO[C@@](Cn6cncn6)(c6ccc(F)cc6F)C5)cc4)CC3)cc2)c1=O" : 2150

###

- Tested on: CYP3A
- protocolNotes: Example 2: lurasidone pharmacokinetics during and after posaconazole (drug-drug interaction)
- Type: in vivo
- measurementConditions: human, plasma, oral, 20 mg, Normal, Day 1 (baseline); read-out: Lurasidone elimination half-life, arithmetic mean ± S.E. (converted)
measurementLabel: half-life (h)
Provide only the numeric value, understood in h.

Recorded result, O=C1[C@@H]2[C@H]3CC[C@H](C3)[C@@H]2C(=O)N1C[C@@H]1CCCC[C@H]1CN1CCN(c2nsc3ccccc23)CC1 [lurasidone] , half-life: 9.4

###

- protocolNotes: Plasma ranolazine pharmacokinetics before, during and after posaconazole in normal-weight and obese subjects
- Type: in vivo, human
- measurementConditions: human, plasma, oral, Day 15 (last day of posaconazole 300 mg daily); obese subjects; ranolazine 500 mg ER; mean ± SD
measurementLabel: half-life (min)
// units = min; emit number, no label

Form field half-life, entry COc1ccccc1OCC(O)CN1CCN(CC(=O)Nc2c(C)cccc2C)CC1 (stereo not shown) : 527

###

- protocolNotes: Plasma ranolazine pharmacokinetics before, during and after posaconazole in normal-weight and obese subjects
- Format: in vivo, human
- measurementConditions: human, plasma, oral, Day 15 (last day of posaconazole 300 mg daily); obese subjects; ranolazine 500 mg ER; mean ± SD
measurementLabel: AUC(0-inf) (ng·h/mL)
Report as a plain number; the unit ng·h/mL is understood.

Summary for this compound, COc1ccccc1OCC(O)CN1CCN(CC(=O)Nc2c(C)cccc2C)CC1 (stereo not shown) : AUC(0-inf) is 25800

###

- protocolNotes: AUC and Cmax target safe levels of CYP3A4 substrate drugs (Table 1)
- measurementConditions: human
- Excerpt: In various embodiments, the “Target safe levels” are non-limiting examples of the upper limit of fold change or percent of baseline where in some embodiments the benefits of treating the patient for the condition or disease for which the CYP3A4 substrate drug is indicated outweigh the risks associated with the effects of a drug-drug interaction. […]
measurementLabel: AUC target safe level, Fold change (fold)

>  <compound>
CCc1nc(C(N)=O)c(Nc2ccc(N3CCC(N4CCN(C)CC4)CC3)c(OC)c2)nc1NC1CCOCC1 [gilteritinib]

>  <AUC target safe level, Fold change, fold>
2.2

$$$$
>  <compound>
O=C(NC[C@H]1CN(c2ccc(N3CCOCC3=O)cc2)C(=O)O1)c1ccc(Cl)s1 [rivaroxaban]

>  <AUC target safe level, Fold change, fold>
1.52

$$$$

a = COc1cc(OC)cc(N(CCNC(C)C)c2ccc3ncc(-c4cnn(C)c4)nc3c2)c1 [erdafitinib]
b = CC#CC(=O)N1CCC[C@H]1c1nc(-c2ccc(C(=O)Nc3ccccn3)cc2)c2c(N)nccn12 [acalabrutinib]
c = CO[C@@H]1[C@H](N(C)C(=O)c2ccccc2)C[C@H]2O[C@]1(C)n1c3ccccc3c3c4c(c5c6ccccc6n2c5c31)C(=O)NC4 [midostaurin]
Please produce an ascending ranking of these compounds based on AUC target safe level, Fold change. Reply format: the labels, ordered as requested.
a, b, c
